- EXPERIMENTAL SYSTEM: Adenosine receptor A2a (Homo sapiens, UniProt P29274)
- Sequence (P29274 whole entry): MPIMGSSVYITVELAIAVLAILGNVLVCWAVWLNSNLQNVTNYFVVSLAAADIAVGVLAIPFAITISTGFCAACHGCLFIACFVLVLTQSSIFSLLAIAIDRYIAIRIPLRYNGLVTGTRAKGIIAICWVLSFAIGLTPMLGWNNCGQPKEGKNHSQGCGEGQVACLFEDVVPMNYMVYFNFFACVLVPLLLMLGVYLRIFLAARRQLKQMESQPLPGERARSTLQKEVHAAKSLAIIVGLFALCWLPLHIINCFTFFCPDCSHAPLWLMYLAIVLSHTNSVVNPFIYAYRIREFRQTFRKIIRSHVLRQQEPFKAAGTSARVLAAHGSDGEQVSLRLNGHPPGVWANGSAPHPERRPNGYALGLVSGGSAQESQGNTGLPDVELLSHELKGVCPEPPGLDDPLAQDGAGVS
- EXPERIMENT: Agonist activity at human adenosine A2a receptor expressed in CHO cells assessed as stimulation of cAMP formation after 24 hrs
RESULT TYPE: pEC50
Scale for pEC50: -log10 of concentration given in mol/L; no unit attached.

Recall the recorded pEC50 for CCNC(=O)[C@H]1O[C@@H](n2cnc3c(N)nc(NCCc4ccc(CCC(=O)Nc5ccc(OC(C)=O)c([N+](=O)[O-])c5)cc4)nc32)[C@H](O)[C@@H]1O with Adenosine receptor A2a (Homo sapiens, UniProt P29274) and state it.
8.67

###

Adenosine receptor A3 (Homo sapiens, UniProt P0DMS8) Ki data
Sequence (P0DMS8 whole entry): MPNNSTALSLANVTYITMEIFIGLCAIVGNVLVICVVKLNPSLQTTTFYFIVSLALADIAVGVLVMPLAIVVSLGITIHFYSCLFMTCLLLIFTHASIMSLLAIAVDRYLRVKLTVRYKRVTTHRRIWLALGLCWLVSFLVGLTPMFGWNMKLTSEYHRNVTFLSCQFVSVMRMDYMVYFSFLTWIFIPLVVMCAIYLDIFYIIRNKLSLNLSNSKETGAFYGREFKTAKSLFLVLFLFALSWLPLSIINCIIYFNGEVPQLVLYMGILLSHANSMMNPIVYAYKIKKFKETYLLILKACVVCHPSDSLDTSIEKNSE
Note: unit nM is implicit; provide only the numeric part.

// returns reported Ki for input CCNC(=O)[C@H]1O[C@@H](n2cnc3c(N)nc(NCCc4ccc(CCC(=O)Nc5ccc(OC(=O)CCCCN=[N+]=[N-])c([N+](=O)[O-])c5)cc4)nc32)[C@H](O)[C@@H]1O
1810

// returns reported Ki for input CCNC(=O)[C@H]1O[C@@H](n2cnc3c(N)nc(NCCc4ccc(CCC(=O)Nc5ccc(OC(=O)CCCC[C@@H]6SC[C@@H]7NC(=O)N[C@@H]76)c([N+](=O)[O-])c5)cc4)nc32)[C@H](O)[C@@H]1O
1960

// returns reported Ki for input CCNC(=O)[C@H]1O[C@@H](n2cnc3c(N)nc(NCCc4ccc(CCC(=O)Nc5ccc(O)c([N+](=O)[O-])c5)cc4)nc32)[C@H](O)[C@@H]1O
171
